# System: 317291-083-R-J1-PDC complex spheroids, viability;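 note: spheroids exposed to compounds for one week before readout; percent viability relative to DMSO vehicle wells taken as 100%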
# procedure_summary: Anticancer human tumor 317291-083-R-J1-PDC patient-derived soft tissue sarcoma cell line growth inhibition [GQUAD]
# condition_label: second compound 10 µM; first compound 3.16 µM; hits give low values
Property: viability, T/C; scope: individual molecules
endpoint_name: viability, T/C

1) O=C(c1cc(Cc2n[nH]c(=O)c3ccccc23)ccc1F)N1CCN(C(=O)C2CC2)CC1 + Cc1cnc(CNC(=O)c2c(=O)c3ccc(N4CCCN(C)CC4)nc3n3c2sc2ccccc23)cn1 | 20.5%
2) COc1ccc([C@@H](O)c2cc(-c3ncnc4cc(N5CCOCC5)ccc34)c(F)cc2Cl)nn1 + CN(C)c1ccc(Nc2c3ccc(NC(=O)CCN4CCCC4)cc3nc3cc(NC(=O)CCN4CCCC4)ccc23)cc1 | 11.5%
3) C#Cc1c(F)ccc2cc(O)cc(-c3ncc4c(N5CC6CCC(C5)N6)nc(OCC56CCCN5CC(F)C6)nc4c3F)c12 (stereo unspecified) + Cc1cnc(CNC(=O)c2c(=O)c3ccc(N4CCCN(C)CC4)nc3n3c2sc2ccccc23)cn1 | 11.1%
4) COc1cc(C2c3cc4c(cc3C(OC3OC5COC(C)OC5C(O)C3O)C3COC(=O)C23)OCO4)cc(OC)c1O (stereo unspecified) + Cc1cnc(CNC(=O)c2c(=O)c3ccc(N4CCCN(C)CC4)nc3n3c2sc2ccccc23)cn1 | 5.33%
5) O=C(c1cc(Cc2n[nH]c(=O)c3ccccc23)ccc1F)N1CCN(C(=O)C2CC2)CC1 + CN(C)c1ccc(Nc2c3ccc(NC(=O)CCN4CCCC4)cc3nc3cc(NC(=O)CCN4CCCC4)ccc23)cc1 | 31.9%
6) COc1ccc([C@@H](O)c2cc(-c3ncnc4cc(N5CCOCC5)ccc34)c(F)cc2Cl)nn1 + Cc1[nH]c2ccc(F)cc2c1-c1nc2c3cccnc3c3ncccc3c2[nH]1 | 47%
7) CC1COCCN1c1cc(C2(O)CC3CCC(C2)O3)c2cnn(-c3ccn[nH]3)c2n1 (stereo unspecified) + CN(C)c1ccc(Nc2c3ccc(NC(=O)CCN4CCCC4)cc3nc3cc(NC(=O)CCN4CCCC4)ccc23)cc1 | 2.2%
8) O=C(c1cc(Cc2n[nH]c(=O)c3ccccc23)ccc1F)N1CCN(C(=O)C2CC2)CC1 + Cc1[nH]c2ccc(F)cc2c1-c1nc2c3cccnc3c3ncccc3c2[nH]1 | 98%
9) O=C(NO)c1cnc(N2CCN(S(=O)(=O)c3ccc4ccccc4c3)CC2)nc1 + Cc1cnc(CNC(=O)c2c(=O)c3ccc(N4CCCN(C)CC4)nc3n3c2sc2ccccc23)cn1 | 0.18%
10) CC1COCCN1c1cc(-c2ccnn2C)c2ccnc(-c3ccn[nH]3)c2n1 (stereo unspecified) + Cc1cnc(CNC(=O)c2c(=O)c3ccc(N4CCCN(C)CC4)nc3n3c2sc2ccccc23)cn1 | 11.4%
11) CC1COCCN1c1cc(C2(O)CC3CCC(C2)O3)c2cnn(-c3ccn[nH]3)c2n1 (stereo unspecified) + Cc1[nH]c2ccc(F)cc2c1-c1nc2c3cccnc3c3ncccc3c2[nH]1 | 10.7%
